- system-name: allatostatin A receptor (ASTA-R) (Apis mellifera)
- Construct: gene LOC413582; receptor expressed in transfected HEK293T cells (NCBI: XP_006560262.1 used for the model)
- Sequence (A0A7M7ILT1 1-361): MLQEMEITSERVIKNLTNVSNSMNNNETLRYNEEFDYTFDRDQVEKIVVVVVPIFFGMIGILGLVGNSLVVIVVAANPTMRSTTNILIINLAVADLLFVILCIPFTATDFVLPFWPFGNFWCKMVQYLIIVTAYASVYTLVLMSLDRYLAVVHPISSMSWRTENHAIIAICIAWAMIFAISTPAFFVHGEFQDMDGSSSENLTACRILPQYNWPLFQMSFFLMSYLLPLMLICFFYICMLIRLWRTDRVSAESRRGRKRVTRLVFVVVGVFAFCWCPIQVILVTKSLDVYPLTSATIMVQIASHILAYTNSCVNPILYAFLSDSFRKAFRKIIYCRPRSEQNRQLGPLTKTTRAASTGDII
- protocol-notes: competition binding with fluorescence-labeled ASTA on ASTA-R-transfected HEK cells; also cAMP antagonism
- Type: cell-based
pIC50: −log10 of the molar value.
quantity-measured: pIC50

Task: Consider the compound Cc1ccc(-n2cncn2)c(NC(=O)CSCCc2ccccc2)c1 [B5] and give its measured pIC50.
Output: < 5.00

###

- system-name: allatostatin A receptor (ASTA-R) (Apis mellifera, UniProt A0A7M7ILT1)
- Construct: gene LOC413582; receptor expressed in transfected HEK293T cells (NCBI: XP_006560262.1 used for the model)
- protocol-notes: competition binding with fluorescence-labeled ASTA on ASTA-R-transfected HEK cells
- Type: cell-based
quantity-measured: IC50

Task: Consider the compound `O=C(CSCCCc1ccccc1)Nc1cc(C(F)(F)F)ccc1-n1cncn1` and give its measured IC50.
Output: > 10 µM

Data origin, for the record: paper PMC9537510
